System: UISO cells (VN-MCC)
experimental_details: qHTS cell viability (CellTiter-Glo, 72 h; primary and follow-up small molecule screen)
Format: cell-based, human
assay_conditions: UISO, 72h, Log (M) -9.63055

compound | Percent viability
O=C(Nc1cccc(Cl)c1)Nc1ncc(CCNc2ncnc3ccsc23)s1 [SNS-314, reference compound] | 96.8%
CCS(=O)(=O)c1cccc(-c2cc(C(=O)NC3CCN(C)CC3)c(C)c3[nH]c4ncc(C)cc4c23)c1 [TAK-901, reference compound] | 103.6%
Cc1cc(Nc2cc(N3CCN(C)CC3)nc(Sc3ccc(NC(=O)C4CC4)cc3)n2)[nH]n1 [Tozasertib, reference compound] | 98.1%
CCn1cc(-c2ccnc3[nH]c(-c4cccc(CN(C)C)c4)cc23)c(-c2ccc(NC(=O)N(C)C)cc2)n1 [GSK-1070916A, reference compound] | 103.4%

Source: paper PMC11822212
